Target: 5-HT1c receptor (Bos taurus, UniProt A0AAA9SBU1)
Sequence (A0AAA9SBU1 33-457): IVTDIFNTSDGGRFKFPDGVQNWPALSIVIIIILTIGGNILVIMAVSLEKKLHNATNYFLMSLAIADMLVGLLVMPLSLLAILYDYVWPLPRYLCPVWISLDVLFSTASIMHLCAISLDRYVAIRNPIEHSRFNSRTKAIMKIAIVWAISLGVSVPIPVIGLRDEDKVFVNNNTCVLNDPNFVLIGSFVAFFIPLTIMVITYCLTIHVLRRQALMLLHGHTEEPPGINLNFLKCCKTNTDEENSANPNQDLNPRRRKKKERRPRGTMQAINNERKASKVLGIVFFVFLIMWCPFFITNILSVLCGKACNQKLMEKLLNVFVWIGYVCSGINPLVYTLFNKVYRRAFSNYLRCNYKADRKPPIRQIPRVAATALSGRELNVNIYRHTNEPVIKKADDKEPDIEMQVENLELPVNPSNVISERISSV
pIC50: −log10 of the molar value. Structures can show the parent of a compound that is named as a salt.
Quick rule: pIC50 of at least 7 means met, below that means not met.

// query Could you verify whether the entry COc1ccc(CC2NCCc3c2[nH]c2ccc(C(C)C)cc32)cc1OC (stereo not drawn) [Example 13] shows pIC50 of no less than 7?
// result met

// query pIC50 >= 7 for COc1ccc(CC2NCCc3c2[nH]c2ccc(C)cc32)c(OC)c1 (stereo not drawn) [Example 24, hydrochloride] ?
// result met

// query Evaluate COc1ccc(CC2NCCc3c2[nH]c2c(Br)cccc32)cc1OC (stereo not drawn) [Example 2, hydrochloride] : pIC50 at minimum 7?
// result met

// query Could you tell me if the measured pIC50 of COc1ccc(CC2NCCc3c2[nH]c2ccc(C)cc32)c(Cl)c1OC (stereo not drawn) [Example 36, hydrochloride] reaches 7 or more?
// result met

// query API: above_or_equal(metric=pIC50, cutoff=7) for item COc1cc(CC2NCCc3c2[nH]c2ccc(C)cc32)cc(N)c1OC (stereo not drawn) [Example 30, dihydrochloride]
// result not met

// query Quick check, pIC50 >= 7? COc1ccc(CC2NCCc3c2[nH]c2c(F)cc(F)cc32)cc1OC (stereo not drawn) [Example 6]
// result met

// query Answer whether pIC50 of COc1ccc(CC2NCCc3c2[nH]c2c(C)cc(C)cc32)cc1OC (stereo not drawn) [Example 14, hydrochloride] is greater than or equal to 7.
// result met

// query // inclusive: pIC50 at least 7? input: COc1ccc(CC2NCCc3c2[nH]c2ccc(C)c(F)c32)cc1OC (stereo not drawn) [Example 9]
// result met

// query Identify whether the reported pIC50 of the following compound is 7 or greater: COc1ccc(CC2NCCc3c2[nH]c2c3ccc3ccccc32)cc1OC (stereo not drawn) [Example 10]
// result met

// query Could you please find out whether COc1cc(OC)c(OC)cc1CC1NCCc2c1[nH]c1ccc(C)cc21 (stereo not drawn) [Example 26, hydrochloride] has pIC50 that meets 7 or exceeds it?
// result met

// query hey, is pIC50 for this one >= 7? COc1ccc(CC2NCCc3c2[nH]c2c(OC)cccc32)cc1OC (stereo not drawn) [Example 5]
// result not met

// query Determine whether measured pIC50 meets or exceeds 7 for COc1cc(CC2NCCc3c2[nH]c2ccc(C)cc32)cc(I)c1OC (stereo not drawn) [Example 29]
// result not met

// query Tell me whether pIC50 is at least 7 here: COc1ccc(CC2c3[nH]c4ccc(C)cc4c3CCN2C)c(Cl)c1OC (stereo not drawn) [Example 44, hydrochloride]
// result not met

// query Answer whether pIC50 of COc1ccccc1CC1NCCc2c1[nH]c1ccc(C)cc21 (stereo not drawn) [Example 23, hydrochloride] is greater than or equal to 7.
// result met

// query Confirm if pIC50 reported for the compound COc1ccc(CC2NCCc3c2[nH]c2ccc(C)c(F)c32)c(Cl)c1OC (stereo not drawn) [Example 38, hydrochloride] is 7 or above.
// result met

// query Threshold query (pIC50 >= 7) on COc1ccc(CC2NCCc3c2[nH]c2ccc(C)cc32)c(OC)c1OC (stereo not drawn) [Example 22, hydrochloride]
// result met

// query Decide: is the reported value of pIC50 for COc1ccc(CC2NCCc3c2[nH]c2c(C)cccc32)cc1OC (stereo not drawn) [Example 1] equal to or greater than 7?
// result not met

// query Exam item: decide whether the reported pIC50 for COc1ccc(CC2NCCc3c2[nH]c2ccc(C(C)(C)C)cc32)cc1OC (stereo not drawn) [Example 8, hydrochloride] is at least 7.
// result met

// query API: above_or_equal(metric=pIC50, cutoff=7) for item COc1cc(CC2NCCc3c2[nH]c2ccc(C)cc32)cc([N+](=O)[O-])c1OC (stereo not drawn) [Example 28, hydrochloride]
// result not met

// query Assess whether reported pIC50 for Cc1ccc2[nH]c3c(c2c1)CCNC3CC1CCCCC1 (stereo not drawn) [Example 39, hydrochloride] sits at 7 or higher.
// result not met

// query Check this compound for pIC50 at or above 7: COc1ccc(CC2NCCc3c2[nH]c2ccc(C4CCCCC4)cc32)cc1OC (stereo not drawn) [Example 11, hydrochloride]
// result not met

// query pIC50 >= 7 for COc1ccc(CC2NCCc3c2[nH]c2c(C)ccc(C)c32)cc1OC (stereo not drawn) [Example 12, hydrochloride] ?
// result met

// query Textbook exercise: given the entry COc1ccc(CC2NCCc3c2[nH]c2c(Br)cc(C)cc32)cc1OC.Cl (stereo not drawn) [Example 4, hydrochloride] , state whether its pIC50 is greater than or equal to 7.
// result met

// query Record COc1ccc(CC2NCCc3c2[nH]c2cc(C)cc(C)c32)cc1OC (stereo not drawn) [Example 15, hydrochloride] ; criterion: pIC50 no lower than 7. Met?
// result met

This collection of values is drawn from patent US6090945A.
